measurement target: hemagglutinin (HA) of live influenza A/Wisconsin/67/05 (H3N2) virus (influenza A virus A/Wisconsin/67/2005 …)
method description: cell-based or functional assay
# maps each entry to its % Neutralization

>  <binder>
TCN-537 (3194_D21) (antibody, V domains shown) VH: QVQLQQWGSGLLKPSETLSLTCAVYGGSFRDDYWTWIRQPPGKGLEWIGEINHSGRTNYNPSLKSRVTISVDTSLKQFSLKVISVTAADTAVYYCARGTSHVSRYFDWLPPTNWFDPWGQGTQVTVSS VL: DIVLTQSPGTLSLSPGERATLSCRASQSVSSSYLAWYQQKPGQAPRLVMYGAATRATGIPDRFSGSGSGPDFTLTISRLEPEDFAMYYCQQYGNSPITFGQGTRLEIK

>  <measure unit>
%

>  <% Neutralization>
0

$$$$
>  <binder>
TCN-534 (5249_B02) (antibody, V domains shown) VH: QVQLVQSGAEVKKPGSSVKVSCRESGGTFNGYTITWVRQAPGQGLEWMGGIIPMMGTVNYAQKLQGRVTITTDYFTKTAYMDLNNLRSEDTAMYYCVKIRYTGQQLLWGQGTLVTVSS VL: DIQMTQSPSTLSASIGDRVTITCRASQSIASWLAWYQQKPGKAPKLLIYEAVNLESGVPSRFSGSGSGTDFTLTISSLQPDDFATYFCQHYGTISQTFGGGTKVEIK

>  <measure unit>
%

>  <% Neutralization>
0

$$$$
